Tested on: MDA-MB-435 melanoma
Test: NCI-60 one-dose screen, 48 h (100 = growth as untreated, 0 = no growth, -100 = all killed)
Settings: 10 µM unless noted
Experimental: Growth inhibition of the MDA-MB-435 human Melanoma tumor cell line is measured as a screen for anti-cancer activity. Cells are grown in 96 well plates and exposed to the test compound for 48 hours. Compounds are tested at a single concentration, which is 10^-5 M for most compounds. The reported endpoint is percent growth (GI% or GIPRCNT), where numbers from 0 - 100% represent growth inhibition, and numbers from -100% - 0 represent cell death. […]
This is part of a sample that, as a whole, favours compounds with a hit. Of some 83,000 tested, about 20% had one in any assay.
Readout: growth (%)
Field: numeric (%). Do not append units.

INSERT INTO results (compound, unit_text, assay_result) VALUES
  ('Nc1nc(N)c2c(n1)NC(c1cccc(Nc3ccnc4cc(C(F)(F)F)ccc34)c1)CC(c1ccc3c(c1)OCO3)=N2 (stereo not given)', '%', 9.59),
  ('Nc1cccc(-c2ccc(COc3ccc(CC4SC(=O)NC4=O)cc3)cc2)c1 (stereo not given)', '%', -17.7),
  ('ClCCn1cnc2c(SCc3ccccc3)ncnc21', '%', 51.8),
  ('O=C(O)c1cn(C2CC2)c2cc(N3CCN(C(=O)N4CCOCC4)CC3)c(F)cc2c1=O', '%', 105);

Kindly consider the entry below.
Q) Look up growth of "CCOC(=O)NCCCC(=O)NCCc1ccccc1" and report it.
A) 109

----------
Tested on: SF-539 CNS
Assay: NCI-60 one-dose screen, 48 h
Details: 10 µM unless noted
This is part of a sample that, as a whole, favours compounds with a hit. Of some 83,000 tested, about 20% had one in any assay. The source made the active and inactive calls. The calls were made as follows: active = growth percent below 10; inactive = the rest.
Response enum: TRUE (active), FALSE (inactive)

INSERT INTO assay_data (molecule, assigned_category) VALUES
  ('Cn1cc(-c2nc3c(F)cc4[nH]ncc4c3c3c2CCCC3)c(C(F)(F)F)n1', 'FALSE'),
  ('CCN(CC)CCOc1ccc(Nc2ncc3cc(-c4c(Cl)cccc4Cl)c(=O)n(CCOC)c3n2)cc1', 'TRUE'),
  ('O=C(C1=Cc2cc3ccccc3n2Cc2cnnn21)c1ccc(F)cc1', 'FALSE'),
  ('CS(=O)/C(C#N)=C\C=C\c1cccc(Cl)c1 (stereo not given)', 'FALSE');

Lab note: next molecule to report on.
Q) What is the recorded call for this molecule in the test? "O=S(=O)(Nc1cc(F)cc(F)c1)c1ccc(-c2cnc(C3CC3)o2)cc1"
A) FALSE

----------
In this section we review reported growth values for a set of compounds.
Tested on: SNB-19 CNS
Assay: NCI-60 one-dose screen, 48 h (100 = growth as untreated, 0 = no growth, -100 = all killed)
Conditions: 10 µM unless noted
This is part of a sample that, as a whole, favours compounds with a hit. Of some 83,000 tested, about 20% had one in any assay. The source made the active and inactive calls. How the source made its calls: active means growth percent below 10; inactive means the rest.

INSERT INTO results (compound, readout, assay_result) VALUES
  ('CCOC(=O)c1nnn(-c2no[n+]([O-])c2-c2ccc(OC)cc2)c1COc1cccc2cccnc12', 'growth', '25.2% (inactive)'),
  ('CN1CCN(Cc2ccc(NC(=O)c3cncc(C#Cc4cnc(N)cc4C#N)c3)cc2C(F)(F)F)CC1', 'growth', '39.1% (inactive)'),
  ('CCOc1ccc(NC(=O)Nc2ccc(OCC)cc2)cc1', 'growth', '107% (inactive)');

Kindly consider the entry below.
Q) Look up growth of COc1cc(N2C(=O)[C@H](Cl)C2c2ccc(SC)cc2)cc(OC)c1OC (stereo partly specified) and report it.
A) 30.5% (inactive)

Values from PubChem BioAssay (NCI)
